Test system: glial A-172 cells
Assay: Cytotoxicity, Calcein AM viability assay on glial A-172 cells
Type: cell-based, human
Settings: 0.1 μM, 48 hours
Reported Endpoint: viability, percentage of DMSO control (%)
Report as a plain number; the unit % is understood.

(Q) Report viability, percentage of DMSO control for C=C(C(=O)OCc1ccncc1)C1CCC2(COC(C)=O)CCC3(C)C(CCC4C5(C)CCC(OC(C)=O)C(C)(C)C5CCC43C)C12 (stereo not shown) tested on glial A-172 cells.
(A) 95.5

(Q) Form entry - test system: glial A-172 cells; read-out: viability, percentage of DMSO control; compound: C=C(C(=O)OCc1cccs1)C1CCC2(COC(C)=O)CCC3(C)C(CCC4C5(C)CCC(OC(C)=O)C(C)(C)C5CCC43C)C12 (stereo not shown)
(A) 99.9

(Q) I'm curious: which viability, percentage of DMSO control was measured for C=C(C(=O)OCc1ccco1)C1CCC2(COC(C)=O)CCC3(C)C(CCC4C5(C)CCC(OC(C)=O)C(C)(C)C5CCC43C)C12 (stereo not shown) tested on glial A-172 cells?
(A) 96.6

(Q) Param readout = viability, percentage of DMSO control; param system = glial A-172 cells; param query = C=C(C(=O)OCc1cccnc1)C1CCC2(COC(C)=O)CCC3(C)C(CCC4C5(C)CCC(OC(C)=O)C(C)(C)C5CCC43C)C12 (stereo not shown) ; response: value
(A) 104.2
